Data provenance is patent US9181199B2.

Let's look at some molecules and their measured melting point.

# molecule, melting point
measured = [
    ("N#CC=Cc1cn(C(c2ccccc2)c2ccccc2)c(=O)[nH]c1=O [compound G, 1-Benzhydryl-5-(2-cyanovinyl)uracil]", "261 °C"),
    ("C[Si](C)(C)C#Cc1cn(Cc2ccccc2)c(=O)[nH]c1=O", "213 to 215 °C"),
    ("C#Cc1cn(Cc2ccccc2)c(=O)[nH]c1=O", "190 to 193 °C"),
    ("C=CCn1cc(C=C(Br)Br)c(=O)[nH]c1=O", "154 to 156 °C"),
    ("O=c1[nH]c(=O)n(C(c2ccccc2)c2ccccc2)cc1-c1c[nH]nn1", "165 °C"),
    ("CC(c1ccccc1)n1cc(C#CBr)c(=O)[nH]c1=O (stereo not shown)", "163 to 167 °C"),
    ("O=c1c(C=CBr)cn(C(c2ccccc2)c2ccccc2)c(=O)n1Cc1ccccc1", "131 °C"),
    ("O=c1[nH]c(=O)n(Cc2ccccc2)cc1C=CBr", "183 °C"),
    ("O=c1[nH]c(=O)n(Cc2ccccc2)cc1C#CBr", "162 to 165 °C"),
    ("C=CCn1cc(C#CBr)c(=O)[nH]c1=O", "164 to 168 °C"),
    ("C=CCn1cc(C=CBr)c(=O)[nH]c1=O", "137 °C"),
    ("O=c1[nH]c(=O)n(Cc2ccccc2)cc1C=C(Br)Br", "205 to 206 °C"),
    ("CC(c1ccccc1)n1cc(C=C(Br)Br)c(=O)[nH]c1=O (stereo not shown)", "179 to 183 °C"),
]
